B1: glmS ribozyme (parent)
chain: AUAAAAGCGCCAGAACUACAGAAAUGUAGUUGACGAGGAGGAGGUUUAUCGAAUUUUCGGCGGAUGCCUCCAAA

Variants of: B1
Test: self-cleavage kobs at 10000 uM GlcN6P; higher = faster cleavage; RNA array
Settings: with glucosamine-6-phosphate
This sample holds only a part of the variants without activity.

mutantLabel	self-cleavage kobs at 10000 uM GlcN6P
A12U G41U C61U	< 1e-05 s⁻¹
C11G U31A A42C	< 1e-05 s⁻¹
C58A	0.000665 s⁻¹
A6G C16U U30A G43U G62U C70A	< 1e-05 s⁻¹
U31C U56G G60C	< 1e-05 s⁻¹
U46G A48U	0.000117 s⁻¹
G7C C10U G60U	< 1e-05 s⁻¹
C34G G62U	< 1e-05 s⁻¹
G41A A48U C68A	< 1e-05 s⁻¹
A6U U31C A36C	< 1e-05 s⁻¹
A6U C10A G38U	< 1e-05 s⁻¹
C10G G51C C58A	< 1e-05 s⁻¹
G62C A64G	< 1e-05 s⁻¹
C10G C61A	< 1e-05 s⁻¹
G7U A15C A36G	< 1e-05 s⁻¹
G37A G66U	0.000301 s⁻¹
G40U U47G	0.000681 s⁻¹
G9U A15C G62A	< 1e-05 s⁻¹
U54G C67U C68U	0.000147 s⁻¹
A6U U31G A36U	< 1e-05 s⁻¹
C8G C16A	< 1e-05 s⁻¹
A33U G66A	5.28e-05 s⁻¹
